Tested on: E57 (patient-derived glioblastoma stem cells of mesenchymal subtype);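 also: nuclei counted by high-content imaging of Hoechst-stained cells in laminin-coated 384-well plates, relative to 0.1% DMSO vehicle wells, with staurosporine as cell-death control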
Assay: surviving fraction (nuclei count normalised to DMSO); higher = more cells surviving (less toxic)
Settings: 111.1 nM; exposure time: 72 h

# COMPOUND, TEST_TARGET, surviving fraction
records = [
    ("C=C(C)[C@H]1Cc2c(ccc3c2O[C@@H]2COc4cc(OC)c(OC)cc4[C@@H]2C3=O)O1", "E57", 0.959),
    ("CC(=O)CC(c1ccc([N+](=O)[O-])cc1)c1c(O)c2ccccc2oc1=O (stereo not drawn)", "E57", 1.07),
    ("Cc1cccn2c(=O)c(-c3nnn[nH]3)cnc12", "E57", 1.09),
]

----------
Measured phenotypic distance, listed per entry.
Test system: E34 (patient-derived glioblastoma stem cells of proneural subtype);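 also: cell Painting imaging in 384-well plates, CellProfiler features reduced to at least 20 principal components, Euclidean distance versus same-plate DMSO vehicle wells (0.1% v/v), median over six images per well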
Test: phenotypic distance (Euclidean, principal components) from DMSO controls (arbitrary units); higher = stronger morphological change
Details: 333.3 nM; exposure time: 72 h
Counter-ions that a name gives are not always drawn.

# COMPOUND, phenotypic distance
rows = [
    ("O=C(/C=C/c1cccnc1)NCCCCC1CCN(C(=O)c2ccccc2)CC1", 1.35),
    ("C#C[C@]1(O)CC[C@H]2[C@@H]3CCc4cc(OC5CCCC5)ccc4[C@H]3CC[C@@]21C", 1.09),
    ("COc1cc2c(NC3CCN(C(C)C)CC3)nc(C3CCCCC3)nc2cc1OCCCN1CCCC1", 0.795),
    ("CCCCC(CC)CNC(=N)NC(=N)NCCCCCCNC(=N)NC(=N)NCC(CC)CCCC (stereo unspecified) [Alexidine dihydrochloride]", 0.858),
    ("CC(=O)O[C@H]1C[C@H](O[C@H]2[C@@H](O)C[C@H](O[C@H]3[C@@H](O)C[C@H](O[C@H]4CC[C@@]5(C)[C@H](CC[C@@H]6[C@@H]5C[C@@H](O)[C@]5(C)[C@@H](C7=CC(=O)OC7)CC[C@]65O)C4)O[C@@H]3C)O[C@@H]2C)O[C@H](C)[C@H]1O[C@@H]1O[C@H](CO)[C@@H](O)[C@H](O)[C@H]1O [Lanatoside C]", 3.87),
    ("N=C(NCCCCCCNC(=N)NC(=N)Nc1ccc(Cl)cc1)NC(=N)Nc1ccc(Cl)cc1", 0.445),
    ("C[C@H]1O[C@@H](O[C@H]2[C@@H](O)C[C@H](O[C@H]3[C@@H](O)C[C@H](O[C@H]4CC[C@@]5(C)[C@H](CC[C@@H]6[C@@H]5C[C@@H](O)[C@]5(C)[C@@H](C7=CC(=O)OC7)CC[C@]65O)C4)O[C@@H]3C)O[C@@H]2C)C[C@H](O)[C@@H]1O", 3.77),
    ("Nc1ccc(-c2ccc3ncc4ccc(=O)n(-c5cccc(C(F)(F)F)c5)c4c3c2)cn1", 3.09),
    ("C=C(C)[C@H]1Cc2c(ccc3c2O[C@@H]2COc4cc(OC)c(OC)cc4[C@@H]2C3=O)O1", 1.76),
    ("CNc1ccc2oc(C[C@H]3O[C@@]4(CC[C@H]3C)O[C@H]([C@H](C)C(=O)c3ccc[nH]3)[C@H](C)C[C@H]4C)nc2c1C(=O)O", 5.09),
    ("COc1ccc2[nH]c([S+]([O-])Cc3ncc(C)c(OC)c3C)nc2c1 (stereo unspecified)", 1.09),
    ("CC(C)C[C@@H](C(=O)N[C@H](C(=O)OC1CCCC1)c1ccccc1)[C@H](O)C(=O)NO", 1.92),
    ("COc1cc([C@@H]2c3cc4c(cc3[C@H](O)[C@H]3COC(=O)[C@H]23)OCO4)cc(OC)c1OC", 7.55),
    ("COc1cccc2c(NCc3ccccc3)nc(-n3c(N)nc4ccccc43)nc12", 0.358),
    ("CN1CCC(NC(=O)c2cc(-c3c(O)cc(O)cc3Oc3ccc([N+](=O)[O-])cc3)on2)CC1", 1.98),
    ("CC(C)C[C@H](NC(=O)[C@H](Cc1ccccc1)C[C@@H](O)[C@H](Cc1ccccc1)NC(=O)OC(C)(C)C)C(=O)N[C@@H](Cc1ccccc1)C(N)=O", 1.1),
    ("CCn1c(-c2nonc2N)nc2cnc(Oc3cccc(NC(=O)c4ccc(OCCN5CCOCC5)cc4)c3)cc21", 1.73),
    ("CC(C)N1CCN(c2ccc(OCC3COC(Cn4cncn4)(c4ccc(Cl)cc4Cl)O3)cc2)CC1 (stereo unspecified)", 0.562),
    ("C#C[C@]1(O)CC[C@H]2[C@@H]3CCC4=CCCC[C@@H]4[C@H]3CC[C@@]21C", 0.472),
    ("Cc1cc(C)c(CN2CCc3c(Cl)cc(-c4c(C)noc4C)c(Cl)c3C2=O)c(=O)[nH]1", 1.23),
    ("CCOC(=O)OC(C)OC1=C(C(=O)Nc2ccccn2)N(C)S(=O)(=O)c2ccccc21 (stereo unspecified)", 0.521),
]
